assay: chemical genetic growth profiling, strain panel (AID 1159580);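 also: tested at 20 µM; growth read once vehicle control cultures reached saturation at 30 °C; 1 = growth at the plate median or of vehicle wells; lower values mean less growth of the strain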; settings: S. cerevisiae deletion strains, growth OD, locus YJL164C, strain tpk1, hits give low values
About 2,000 (36%) of roughly 5,500 compounds were called active. Not shown: some 18% with an inconclusive outcome. This is one part of the list.
Items are presented alongside their recorded normalized growth.
No unit in the answer, only the number.

Known results for molecules:
MOLECULE	normalized growth
CC(C)(O)[C@@H]1CC[C@](C)([C@H]2[C@@H](O)C[C@@]3(C)C4C[C@H](O[C@@H]5O[C@H](CO)[C@@H](O)[C@H](O)[C@H]5O)C5C(C)(C)[C@@H](O[C@@H]6OC[C@@H](O)[C@H](O)[C@H]6O)CC[C@@]56C[C@@]46CC[C@]23C)O1 (some centres undefined)	1
O=c1c2ccccc2oc2ccccc12	0.891
CCn1cc(C(=O)O)c(=O)c2cc(F)c(N3CCNCC3)cc21	0.988
COc1cccc2c1cc([N+](=O)[O-])c1c(C(=O)O)cc3c(c12)OCO3	0.991
C[n+]1cc2c3c(ccc2c2ccc4cc5c(cc4c21)OCO5)OCO3	0.363
CC(C)=CCc1c2c(c(O)c3c(=O)c(O)c(-c4ccccc4)oc13)C=CC(C)(C)O2	0.732
FC(F)(F)C(Cl)Br (centres undefined)	1.02
O=c1c(-c2ccccc2)coc2cc(O)cc(O)c12	0.934

Switching to the query record.
Task: I'd like to know its normalized growth. The molecule in question is `N[C@H](CO)Cc1ccccc1`
Result: 0.994
